# assay_details: chemical genetic growth profiling, strain panel (AID 1159580);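 note: tested at 20 µM; growth read once vehicle control cultures reached saturation at 30 °C; 1 = growth at the plate median or of vehicle wells; lower values mean less growth of the strain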
# setup_conditions: S. cerevisiae deletion strains, growth OD, locus YCL029C, strain bik1
The whole screen tested about 5,500 compounds, of which about 2,000 (36%) were called active. Not shown: some 18% with an inconclusive outcome. Cut-off read from the data, not from the text of the source: active = normalized growth mostly below about 0.91 (no sharp cut-off); inconclusive = no clear call, values can overlap the other calls; inactive = mostly above about 0.92. The list shows a part of the results.
Give your call using only these classes: class 1 = active, class 0 = inactive

Answer briefly: the call reported for CCCCC(CC)CN1CN(CC(CC)CCCC)CC(C)(N)C1 (centres undefined) in this assay.
class 1

Each compound tested received a call. Report the one for CSCCC(NC=O)C(=O)NC(C)C(=O)O (centres undefined) .
class 0

Please indicate how the test categorized C1CCN2CC3CC(CN4CCCCC34)C2C1 (centres undefined) .
class 0

I would be grateful if you could indicate the recorded call for O=C(O)/C=C/C=C/c1ccccc1 .
class 0

Assay outcome for CC(=O)OCC1(C)CCC2(C)CCC3(C)C4=CCc5c(cc(OC(C)=O)c(OC(C)=O)c5C)C4(C)CCC3(C)C2C1 (centres undefined) : what was it?
class 0

GET /call?item= CC(C)(C)NCC(O)c1ccccc1Cl (centres undefined) returns the recorded outcome of this test.
class 0

I'd appreciate the recorded outcome for C[n+]1cccc(C(=O)[O-])c1 from this test.
class 0

Field: outcome | Entry: Nc1ccc(S(=O)(=O)Nc2ccccn2)cc1
class 0

What did the test return for CC(=O)Oc1ccc(Cl)c2cccnc12 ?
class 1

Hello, I am checking results. What call was entered for CCCC1O[C@@H]2CC3C4CCC5=CC(=O)C=CC5(C)C4[C@@H](O)CC3(C)[C@]2(C(=O)CO)O1 (some centres undefined) ?
class 0

Hello, I am checking results. What call was entered for C=C[C@](C)(O)CCC=C(C)C ?
class 0

Record lookup: outcome of this test for CC(=O)Nc1cc([As](=O)(O)O)ccc1O ?
class 0

How did this test come out for CC(C)NCC(O)c1ccc2ccccc2c1 (centres undefined) ?
class 0

Per the records of this test, what outcome belongs to O=[N+]([O-])c1cc(O)c(O)c([N+](=O)[O-])c1 ?
class 0

Returns: the outcome recorded for Nc1ccc(C(=O)NCC(=O)O)cc1 in this assay.
class 0

Fill in: this test's call for NCCNC(=O)c1ccc(Cl)cc1 is ___
class 0

For this compound, state the assay outcome: COc1c2c(cc3c1OCO3)CCN(C)C2
class 0

Recorded call for O=C1C=CC2=C3c4cc(O)c(O)cc4C[C@@]3(O)COC2=C1 ?
class 0

Write down the call the test reported for this compound. Item: CC(=O)c1c(O)c(C)c(O)c2c1OC1=CC(=O)C(C(C)=O)C(=O)C12C (centres undefined)
class 0

Dear all, I need the recorded test outcome for COC(=O)[C@]1(C)CC[C@]2(C)CC[C@]3(C)C4=CCc5c(cc(O)c(O)c5C)[C@]4(C)CC[C@@]3(C)C2C1 (some centres undefined) , thank you.
class 0

Can you look up the reported call for COc1cc2c(c(OC)c1OC)-c1ccc(OC)c(=O)cc1[C@@H](NC(C)=O)CC2 for me?
class 0

Please let me know the test result on file for O=C1CCCC2C3CC(CN12)[C@@H]1CCCCN1C3 (some centres undefined) .
class 0

Hey, what did the test say about Cc1ccsc1/C=C/C1=NCCCN1C ?
class 0

Outcome logged for C=CCC1(C(C)CCC)C(=O)N=C(S)NC1=O (centres undefined) in this assay:
class 0

Which outcome was entered for the compound CC(C)(C)NC[C@@H](O)COc1nsnc1N1CCOCC1 in this test?
class 0

Dear colleague, could you share the recorded outcome for Cc1ccc(/C(=C\CN2CCCC2)c2ccccn2)cc1 when you have a moment?
class 0

Hi, do you know how O=C1C=CC2=C3c4cc(O)c(O)cc4CC3(O)COC2=C1O (centres undefined) came out in this test?
class 0

Per the assay record, what outcome was assigned to CCCc1occc(=O)c1/C=C/O ?
class 0

Could you please tell me the result logged for Nc1ccc(S(=O)(=O)Nc2ccc(Cl)nn2)cc1 in this assay?
class 0

Hi, do you know how CCC[C@H]1CC2=C(C[C@@H](CC)CC3=C1C(=O)OC3=O)C(=O)OC2=O came out in this test?
class 0

Outcome? O=C(O)CF
class 0

Status in this test for NC(=NCCC[C@H](N)C(=O)O)NC(CCC(=O)O)C(=O)O (some centres undefined) ?
class 0

Hey, what did the test say about C=CC(C)(O)CC/C=C(\C)CCC=C(C)C (centres undefined) ?
class 0

Record request — test call for CS(=O)(=O)CCCCN=C=S
class 1

Recorded test call requested for CCCC(C)C1(CC)C(=O)NC(=O)NC1=O (centres undefined)
class 0

Record request — test call for NCC(CC(=O)O)c1ccc(Cl)s1 (centres undefined)
class 0

Check the results log: what was the call for Cc1c(O)c(O)cc2c1CC=C1[C@@]2(C)CC[C@@]2(C)C3C[C@](C)(C(=O)O)CC[C@]3(C)CC[C@]12C (some centres undefined) ?
class 0

Test call for this compound, please: C[C@H]1[C@H]2CCC3C4CC=C5C[C@@H](N(C)C)CC[C@]5(C)C4CC[C@@]32CN1C (some centres undefined)
class 0

Query: recorded result category for Nc1nc2ncc(C(=O)O)nc2c(=O)[nH]1 in this test
class 0

* * *

Task for the reader: assign each of the following compounds its reported normalized growth.
# assay_details: chemical genetic growth profiling, strain panel (AID 1159580);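 note: tested at 20 µM; growth read once vehicle control cultures reached saturation at 30 °C; 1 = growth at the plate median or of vehicle wells; lower values mean less growth of the strain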
# setup_conditions: S. cerevisiae deletion strains, growth OD, locus YPL256C, strain CLN2, hits give low values
Hit rate of the full screen: of about 5,500 compounds, about 2,000 (36%) were called active. Not shown: some 18% with an inconclusive outcome. Some of the results follow.
Give the figure only, with no unit attached.

The recorded normalized growth for Cc1c2c(=O)[nH]ncc2c(-c2ccccc2)n1-c1ccc([N+](=O)[O-])cc1 is 0.931

normalized growth measured on NCC(O)c1ccc(O)cc1 (centres undefined) = 0.97

For record CO[C@H]1/C=C/O[C@@]2(C)Oc3c(C)c(O)c4c(O)c(c(/C=N/N5CCN(C)CC5)c(O)c4c3C2=O)NC(=O)/C(C)=C\C=C\C(C)[C@H](O)[C@@H](C)[C@@H](O)[C@@H](C)[C@@H](OC(C)=O)[C@@H]1C (some centres undefined) the listed normalized growth is 1.06

Noted for Cc1c(C)c(C)c(CSC(N)=Nc2ccc(F)cc2)c(C)c1C : its normalized growth reads 0.902

GET /value?item= C[C@H]1[C@H]2CCC3C4CC=C5C[C@@H](N(C)C)CC[C@]5(C)C4CC[C@@]32CN1C (some centres undefined) &field=normalized growth returns 1.01

For reference, reported normalized growth for C1CCN2C[C@@H]3C[C@H](CN4CCCC[C@@H]34)[C@H]2C1 stands at 1.06

Input CC(=O)c1c(O)c(C)c(O)c2c1OC1=CC(=O)C(C(C)=O)C(=O)C12C (centres undefined) . Output normalized growth: 0.189

Documented normalized growth of Nc1ncn([C@@H]2O[C@H](CO)[C@@H](O)[C@H]2O)c(=O)n1 : 0.975

Documented normalized growth of CNC[C@@H](O)c1ccc(O)c(O)c1 : 1.03

* * *

# assay_details: chemical genetic growth profiling, strain panel (AID 1159580);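 note: tested at 20 µM; growth read once vehicle control cultures reached saturation at 30 °C; 1 = growth at the plate median or of vehicle wells; lower values mean less growth of the strain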
# setup_conditions: S. cerevisiae deletion strains, growth OD, locus YOR270C, strain vph1, hits give low values
Out of some 5,500 compounds screened, about 2,000 (36%) were called active. About 18% were inconclusive and are not listed. The list shows a part of the results.
For each entry below, report its normalized growth value.
Would you mind answering with just the numeric figure?

For reference, reported normalized growth for CCCC1O[C@@H]2CC3C4CCC5=CC(=O)C=CC5(C)C4[C@@H](O)CC3(C)[C@]2(C(=O)CO)O1 (stereo not given in full) stands at 1.06

Quick note, normalized growth for CC1(C)C(C(Cl)Cl)C2(Cl)C(Cl)C(Cl)C1(Cl)C2(Cl)Cl (stereo not given) landed at 0.922

Entry CCN(CC)CCNC(=O)c1cc(S(C)(=O)=O)ccc1OC , normalized growth reported as 0.933

In plain terms, NC[C@H](O)c1ccc(O)c(O)c1 has a documented normalized growth of 0.944

Memo: CCCCC(CC)CN1CN(CC(CC)CCCC)CC(C)(N)C1 (stereo not given) , reported normalized growth: 0.0981

Note to self: normalized growth recorded for O=C(O)c1ccccc1Nc1ccccc1 was 0.97

The value of normalized growth measured for the molecule Oc1c(Cl)cc(Cl)c2cccnc12 turned out to be 0.0804

For reference, reported normalized growth for CCOP(=S)(OCC)SCn1c(=O)oc2cc(Cl)ccc21 stands at 0.963

# normalized growth of Cc1ccc2c(Cl)cc(Cl)c(O)c2n1 = 1.02

So for O=C(O)CF , the logged normalized growth turned out to be 1.02

In plain terms, NCC(O)c1ccc(O)cc1 (stereo not given) has a documented normalized growth of 1.06

CC1(C)CCCC2(C)C3C1[C@@H](O)C2(C)C[C@H]3O (stereo not given in full) has a reported normalized growth of 1.08

The molecule listed as Cc1c(Nc2ncccc2C(=O)O)cccc1C(F)(F)F shows normalized growth equal to 0.983

Reported normalized growth of OC[C@@H]1CCCN2CCCC[C@H]12 : 1.14

Data point: Oc1ccc(Cl)c2cccnc12 ; normalized growth = 0.131
